The reported numbers originate from PubChem BioAssay (NCATS).

The reader will find reported Potency values listed item by item below.
experimentalDetails: qHTS Assay for Identification of Small Molecule Antagonists for NFkB Signaling Pathway. (AID 624479);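 also: pathway stimulated with TNF alpha; potency is read from the fitted curve at half-maximal effect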
measurementConditions: NFkB pathway reporter cell assay, antagonist mode; series mostly up to 38.3 µM
Activity calls are given as the source filed them. Calls follow the shape of the full dose curve.
valueType: Potency

INSERT INTO assay_data (testsmiles, result) VALUES
  ('O=C(Nc1cc(C(F)(F)F)cc(C(F)(F)F)c1)c1cc(Cl)ccc1O', '14.9 µM (active)'),
  ('C=CCON=C(C[C@H]1O[C@@H]2O[C@]3(C)CC[C@@H]4[C@H](C)CC[C@@H]([C@H]1C)[C@@]24OO3)[C@H]1O[C@@H]2O[C@]3(C)CC[C@H]4[C@H](C)CC[C@@H]([C@@H]1C)[C@@]24OO3', '16.8 µM (active)'),
  ('COCCn1c2c([n+](Cc3cnccn3)c1C)C(=O)c1ccccc1C2=O', '0.0047 µM (active)'),
  ('C[C@@]12O[C@@H](C[C@]1(O)CO)n1c3ccccc3c3c4c(c5c6ccccc6n2c5c31)CNC4=O', '1.49 µM (active)');

====

The reader will find reported activity, percent of control values listed item by item below.
experimentalDetails: qHTS profiling for inhibitors of Plasmodium falciparum (DD2) proliferation (AID 743323)
measurementConditions: lower = more inhibition; at 28.7 µM (top of the series) unless noted
valueType: activity, percent of control (%)

INSERT INTO measurements (testsmiles, numericresult) VALUES
  ('Cc1ccccc1-n1c(Cn2cnc3c(N)ncnc32)nc2cccc(C)c2c1=O', 37.6),
  ('O=C(Oc1ccc([N+](=O)[O-])cc1)N1CCC(C(O)(c2ccc3c(c2)OCO3)c2ccc3c(c2)OCO3)CC1', 90.2),
  ('CC(=O)Nc1ccc(OC[C@](C)(O)C(=O)Nc2ccc([N+](=O)[O-])c(C(F)(F)F)c2)cc1', 97.8),
  ('C1=CCOCc2cc(ccc2OCCN2CCCC2)Nc2nccc(n2)-c2cccc(c2)OCC1', 107),
  ('CC(C)(C)c1[nH]cnc1C=c1[nH]c(=O)c(=Cc2ccccc2)[nH]c1=O', 49.6),
  ('CCCCN1CCC(CNC(=O)c2c3n(c4ccccc24)CCCO3)CC1', 54.7),
  ('Nc1nc(-c2nn(Cc3ccccc3F)c3ncccc23)nc(N)c1N1CCOCC1', 94.1),
  ('C/C=C(/C)C(=O)O[C@H]1C(C)=C2[C@H]([C@@H]1OC(=O)CCCCCCC)[C@@](C)(OC(C)=O)C[C@H](OC(=O)CCC)[C@@]1(O)[C@H]2OC(=O)[C@@]1(C)O', 1.02),
  ('O=C(O)c1ccc(O)c2ncc(N3CCOCC3)cc12', 35.5);

====

experimentalDetails: qHTS assay for measurement of the activity of small molecule inhibitors on Zika virus induced Caspase-3 activity in human iPSC derived neural progenitor cells (hNPCs) (AID 1224857); also: nearly all actives have a fitted effect of over 65% in size
measurementConditions: hNPCs ZIKV-induced caspase-3/7, Caspase-Glo luminescence, 6 h; series mostly up to 45.7 µM
Description: National Center for Advancing Translational Sciences [NCATS] Johns Hopkins University School of Medicine […] The medium for hNPCs consists of DMEM/F12, N2 supplement (ThermoFisher, Cat.# 17502048), NEAA (ThermoFisher, Cat. # 11140050), 2 ug/ml heparin, 2 uM cyclopamine, and B27 (ThermoFisher, Cat. # 17504044). […] The luminescence intensity of the assay plates was measured using a ViewLux plate reader (PerkinElmer). […]
Inconclusive results are not listed. Activity calls are given as the source filed them. Calls come from the whole dose curve; as a rule, active = well fitted inhibition curve with a large enough effect; inconclusive = small, poorly fitted or top-dose-only effect; inactive = no such curve, though single readings can be large or run the other way.
Possible outcomes: active, inactive

INSERT INTO results (compound, classlabel) VALUES
  ('C[C@@H]1O[C@@H](O[C@@H]2C=C3CC[C@@H]4[C@@H](CC[C@]5(C)[C@H](c6ccc(=O)oc6)CC[C@@]45O)[C@@]3(C)CC2)[C@H](O)[C@H](O)[C@H]1O', 'inactive'),
  ('COc1cc2cc(c1Cl)N(C)C(=O)C[C@H](OC(=O)C(C)C)[C@]1(C)O[C@H]1[C@H](C)[C@@H]1C[C@@](O)(NC(=O)O1)[C@H](OC)C=CC=C(C)C2', 'inactive'),
  ('O=[N+]([O-])c1cc([N+](=O)[O-])c2ccccc2c1', 'inactive'),
  ('O=[N+]([O-])/N=C1\NCCN1Cc1ccc(Cl)nc1', 'inactive'),
  ('O=C(NCC1CCOCC1)c1cnc(Nc2ccc(Cl)cc2Cl)nc1C(F)(F)F', 'inactive'),
  ('CC1=NN=C(c2ccc(N)cc2)c2cc3c(cc2C1)OCO3', 'inactive'),
  ('NCCc1c[nH]c2ccccc12', 'inactive'),
  ('CCCC[N+]1(C)[C@H]2CC(OC(=O)[C@H](CO)c3ccccc3)C[C@H]1[C@H]1O[C@H]12 (stereo not given in full)', 'inactive'),
  ('NC1=NC(=O)N2CC12 (stereo not given)', 'inactive'),
  ('CC(C)(C)NC[C@H](O)c1ccc(O)cc1Cl', 'inactive'),
  ('CC=C(C)C(=O)N[C@@H](c1ccccc1)[C@@H](O)C(=O)O[C@H]1C[C@@]2(O)[C@@H](OC(=O)c3ccccc3)[C@@H]3[C@]4(OC(C)=O)CO[C@@H]4C[C@H](O)[C@@]3(C)C(=O)[C@H](OC(C)=O)C(=C1C)C2(C)C', 'inactive'),
  ('C=CCC1=C(C)C(OC(=O)C2C(C=C(C)C)C2(C)C)CC1=O (stereo not given)', 'inactive'),
  ('Nc1ccc([N+](=O)[O-])cc1', 'inactive'),
  ('CC1=C(C(=O)O)N2C(=O)[C@@H](N)[C@H]2SC1', 'inactive'),
  ('CC(Cc1ccc(O)cc1)NCC(O)c1cc(O)cc(O)c1 (stereo not given)', 'inactive'),
  ('CC(=Cc1csc(C)n1)[C@@H]1C[C@H]2O[C@@H]2CCC[C@H](C)[C@@H](O)[C@@H](C)C(=O)C(C)(C)[C@@H](O)CC(=O)O1', 'inactive'),
  ('O=C(O)CNC(=O)c1c(O)c2ccccc2n(Cc2ccccc2)c1=O', 'inactive'),
  ('C/C=C(/C)C(=O)O[C@H]1C(C)=C2[C@H]([C@@H]1OC(=O)CCCCCCC)[C@@](C)(OC(C)=O)C[C@H](OC(=O)CCC)[C@@]1(O)[C@H]2OC(=O)[C@@]1(C)O', 'inactive'),
  ('CC(C)Oc1cccc(NC(=O)c2ccccc2C(F)(F)F)c1', 'inactive'),
  ('Nc1ccc(N=Nc2ccccc2)cc1', 'active');
